Molecular target: T1, human IL-2Rα (human, UniProt P01589 22-240, limits assumed)
T1 construct: recombinant protein; also called hu IL-2R; human IL-2Ra
T1 sequence: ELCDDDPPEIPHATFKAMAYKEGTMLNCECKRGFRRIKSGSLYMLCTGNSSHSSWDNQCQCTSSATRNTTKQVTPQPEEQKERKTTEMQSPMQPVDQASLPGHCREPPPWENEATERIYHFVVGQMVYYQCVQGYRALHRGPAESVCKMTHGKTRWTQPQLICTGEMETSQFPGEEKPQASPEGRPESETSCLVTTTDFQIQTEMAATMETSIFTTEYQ
Test: SPR, P.E. on immobilised antigen
OBSERVABLE: koff (s⁻¹)
// units = s⁻¹; emit number, no label

Below: 3 binders and their reported koff.
Exercise: Any idea what its koff is? The binder is FJ1427_P035MP01F06 (VHH, periplasmic extract; also called clone nr; 46) VHH: QLQLVESGGGLVQAGGSLRLSCAASGGAFSRYAVGWFRMAPGKGREFVSAIDLSGTNTHVLDSVKGRFTISRDNDKNTAYLQMDKLQPEDTAVYWCAATSSSYSDYEANYNIWGQGTQVTVSS
Key: 0.000526

Exercise: Any idea what its koff is? The binder is FJ1427_P035MP05E11 (VHH, periplasmic extract; also called clone nr) VHH: EVQLVESGGGSVQAGGSLRLSCAASGRTLYSSYGMAWFRQAPGKERDFVGSISRYGTYTSYADSVKDRFTISRDNAKSTVYLQMNNTKPEDTAVYYCAAYTYSGSFYSTVKTHRDEYQYWGQGTQVTVSS
Key: 0.001

Exercise: Any idea what its koff is? The binder is FJ1427_P035MP01F12 (VHH, periplasmic extract; also called clone nr; 94) VHH: EVQLVESGGGLVQAGGSLGLSCAASGITFNDHTMAWFRQAPGKEREFVAARDWSDIITRYASSVKGRFTISRDNAGNTGFLQMNSLRPEDTAVYYCAAREGGVVAGVRSGAPYDYWGQGTQVTVSP
Key: 0.00011

Others:
Exercise: Any idea what its koff is? The binder is FJ1427_P035MP05D11 (VHH, periplasmic extract; also called clone nr) VHH: QVQLVESGGGSVQAGGSLRLSCEASGPTLFSSYGMGWFRQAPGKKEREFVGAISRYGTYTSYADPVKDRLTISRGNAKSTVYLQMNNTKPEDTAVYYCAAYTYSGSFYSTVKTHHDEYHYWGQGTQVTVSS
Key: 0.000662

These entries and their values trace back to patent US20240409645A1.
